Target: Gamma-secretase
Assay: Inhibition of gamma-secretase mediated amyloid beta-40 production in HEK293 cells by whole cell-based assay
Parameters: species or system Homo sapiens
pIC50: −log10 of the molar value.
metric: pIC50

(P) CCN1CCN(C(=O)OC2(C3CCCC(c4cc(F)cc(F)c4)N3S(=O)(=O)c3ccc(Cl)cc3)CC2)CC1 (racemic)
(Q) CC1CN(C(=O)OC2(C3CCCC(c4cccc(F)c4)N3S(=O)(=O)c3ccc(Cl)cc3)CC2)CC(C)N1 (racemic)
Inquiry: // pick min by pIC50: P , Q Identify your selection by its label.
Reply text: Q
(Q: 6.92, P: 8.12)

(1) O=C(OC1(C2CCCC(c3cccc(F)c3)N2S(=O)(=O)c2ccc(Cl)cc2)CC1)N1CCC(O)(C2CC2)CC1 (racemic)
(2) Cl.O=C(OC1(C2CCCC(c3cc(F)cc(F)c3)N2S(=O)(=O)c2ccc(Cl)cc2)CC1)N1CCNCC1 (racemic; form 2)
(3) CCC(CO)NC1CC2CCC(C1)N2C(=O)OC1(C2CCCC(c3cccc(F)c3)N2S(=O)(=O)c2ccc(Cl)cc2)CC1 (racemic)
(4) O=C(OC1(C2CCCC(c3cc(F)cc(F)c3)N2S(=O)(=O)c2cc(F)cc(F)c2)CC1)N1CCC(N2CCCCC2)CC1 (racemic)
Inquiry: Put these in order: smallest pIC50 first, largest last. # format: label list in the order the request specifies
Reply text: 2, 3, 4, 1
(2: 6.97, 3: 7.67, 4: 7.89, 1: 8.11)

Entry source: ChEMBL document CHEMBL1138400
